Just for reference, patent US20190338002A1 is where these values come from.

# tgt: T1, rat beta CGRP (SEQ ID NO: 83) (rat, not fully specified)
# T1 construct: also called rat βCGRP; rat β-CGRP
# T1 peptide: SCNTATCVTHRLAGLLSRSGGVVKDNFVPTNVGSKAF
# testSummary: SPR, 37 C, mutein captured, CGRP analyte
propertyLabel: koff (s⁻¹)

[
  {
    "binder": "lipocalin mutein SEQ ID NO: 16 (designed binder, biotinylated by NHS chemistry for capture in SPR) QDSTSDLIPAPPLSKVPLQQNFQDNQFHGKWYVVGRAGNDELREDKDPEKMEATIYELKEDKSYNVTDVGFVQKKCMYVIHTFVPGSQPGEFTLGNIKSYPGVTSGLVRVVSTNYNQHAMVFFKVVRQNRELFEITLYGRTKELTSELKENFIRFSKSLGLPENHIVFPVPIDQCIDGSAWSHPQFEK",
    "obsValue": 0.000229
  },
  {
    "binder": "lipocalin mutein SEQ ID NO: 13 (designed binder, biotinylated by NHS chemistry for capture in SPR) QDSTSDLIPAPPLSKVPLQQNFQDNQFHGKWYVVGRAGNEELREDKDPQKMEATIYELKEDKSYNVTDVGFSEKKCIYVIHTFVPGSQPGEFTLGNIKSYPGVTSALVRVVSTNYNQHAMVFFKVVKQNRELFEITLYGRTKELTSELKENFIRFSKSLGLPENHIVFPVPIDQCIDGSAWSHPQFEK",
    "obsValue": 0.00035
  },
  {
    "binder": "lipocalin mutein SEQ ID NO: 12 (designed binder, biotinylated by NHS chemistry for capture in SPR) QDSTSDLIPAPPLSKVPLQQNFQDNQFHGKWYVVGWAGNTLLREDKDPPKMQATIYELKEDRSYNVTWVYFSEKKCNYHIETSVPGSQPGEFTLGTIQSHPGETPILVRVVSTNYNQHAMVFFKGMGQNREIFEITLYGRTKELTSELKENFIRFSKSLGLPENHIVFPVPIDQCIDGSAWSHPQFEK",
    "obsValue": 0.000205
  },
  {
    "binder": "lipocalin mutein SEQ ID NO: 8 (designed binder, biotinylated by NHS chemistry for capture in SPR) QDSTSDLIPAPPLSKVPLQQNFQDNQFHGKWYVVGWAGNTLRREDKNPTKMQATIYELKEDKSYNVTWVYFSEKKCNYHIETSVPGSQPGEFTLGTIKSYPGETSILVRVVSTNYNQHAMVFFKGVSQNREIFEITLYGRTKELTSELKENFIRFSKSLGLPENHIVFPVPIDQCIDGSAWSHPQFEK",
    "obsValue": 0.000636
  },
  {
    "binder": "lipocalin mutein SEQ ID NO: 23 (designed binder, biotinylated by NHS chemistry for capture in SPR) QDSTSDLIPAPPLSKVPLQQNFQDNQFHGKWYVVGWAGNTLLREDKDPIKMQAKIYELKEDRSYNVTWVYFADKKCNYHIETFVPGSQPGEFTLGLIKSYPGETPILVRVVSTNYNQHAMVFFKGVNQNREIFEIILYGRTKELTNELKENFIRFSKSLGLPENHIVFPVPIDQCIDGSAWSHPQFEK",
    "obsValue": "1.34e-05"
  }
]
